# Species on record: Oryctolagus cuniculus
# run_description: Effect on platelet aggregation induced by collagen in washed rabbit platelet
# Assay type: functional
readout_name: Aggregation

Reference set (3 entries):
COc1c(O)ccc2c1-c1c(OC)c(O)cc3c1[C@H](C2)NCC3.Cl; 0%
COc1cc2c(cc1OC)C(O)C1c3c(cc(OC)c(OC)c3-2)CCN1C (stereo unspecified); 12.7%
COc1ccc2c(c1OC)-c1c(OC)c(O)cc3c1[C@H](C2)N(C)CC3; 83.5%

Prompt: Return reported Aggregation; argument: COc1cc2c3c(c1O)-c1ccccc1CC3N(C)CC2 (stereo unspecified)
Completion: 0%

Prompt: Try the compound COc1ccc2c(c1OC)-c1c(OC)c(OC)cc3c1[C@H](C2)[N+](C)(C)CC3.[I-] [ISOCORYDINE METHIODIDE]
Completion: 87.9%

Prompt: Do the same for COc1cc2c(cc1OC)-c1c3c(cc4c1[C@H](C2)N(OC)CC4)OCO3 please
Completion: 87.3%
